Provide the reported LC50 of each item.
# Test system: HOP-62
# method_notes: Cytotoxicity against Homo sapiens (human) HOP62 cells after 48 hr by SRB assay
# Assay type: functional
# test_context: HOP-62, 48 h
Numbers only, in µM.

>  <input_smiles>
COc1ccccc1CNC(=O)CSc1nc2ccccc2c2nc(=O)c(-c3ccccc3)nn12

>  <value>
19.5

$$$$
>  <input_smiles>
O=C(CSc1nc2ccccc2c2nc(=O)c(-c3ccccc3)nn12)NCc1ccccc1

>  <value>
30.2

$$$$

We next turn to a different compound, shown below.
Problem: Check the records and state LC50 for `COc1ccc(-c2nn3c(SCC(=O)Nc4ccccc4Cl)nc4ccccc4c3nc2=O)cc1`
Solution: 35.5

###

# Tested on: Photobacterium leiognathi
# method_notes: Growth inhibition of Photobacterium leiognathi Sh1 assessed as bio-luminescence at 0.1 mg/ml after 16 to 18 hr by chronic action test relative to control
# Format: functional
# Set-up: scale not given: the % may be the effect or the level left
Response field label: string, one of met (Activity strictly below 90%) or not met.

# count of solved cases: 6
>  <input_smiles>
COc1ccc(CNC(=O)CSc2nc3ccccc3c3nc(=O)c(-c4ccccc4)nn23)cc1

>  <experimental_system>
Photobacterium leiognathi

>  <assigned_label>
met

$$$$
>  <input_smiles>
O=C(CSc1nc2ccccc2c2nc(=O)c(-c3ccccc3)nn12)Nc1cccc(C(F)(F)F)c1

>  <experimental_system>
Photobacterium leiognathi

>  <assigned_label>
not met

$$$$
>  <input_smiles>
Cc1ccc(-c2nn3c(SCC(=O)Nc4cccc(C(F)(F)F)c4)nc4ccccc4c3nc2=O)cc1

>  <experimental_system>
Photobacterium leiognathi

>  <assigned_label>
met

$$$$
>  <input_smiles>
Cc1cccc(NC(=O)CSc2nc3ccccc3c3nc(=O)c(C)nn23)c1

>  <experimental_system>
Photobacterium leiognathi

>  <assigned_label>
not met

$$$$
>  <input_smiles>
O=C(CSc1nc2ccccc2c2nc(=O)c(-c3ccccc3)nn12)NCc1ccccc1

>  <experimental_system>
Photobacterium leiognathi

>  <assigned_label>
not met

$$$$
>  <input_smiles>
Cc1nn2c(SCC(=O)Nc3ccccc3)nc3ccccc3c2nc1=O

>  <experimental_system>
Photobacterium leiognathi

>  <assigned_label>
met

$$$$

Problem: Consider `Cc1ccc(-c2nn3c(SCC(=O)Nc4ccc(C(F)(F)F)cc4)nc4ccccc4c3nc2=O)cc1` . Does its Activity lie strictly below 90%?
Solution: not met

###

# System: MDA-MB-435
# method_notes: Cytotoxicity against Homo sapiens (human) MDA-MB-435 cells assessed as cell growth at 10 uM after 48 hr by SRB assay relative to control
# Assay type: functional
# test_context: MDA-MB-435, 48 h, read-out: Activity
Provide the reported growth at 10 µM of each item.
Give bare numbers, in %.

Sample answers from the record:
>  <input_smiles>
COc1ccc(-c2nn3c(SCC(=O)Nc4ccccc4Cl)nc4ccccc4c3nc2=O)cc1

>  <reported_endpoint>
growth at 10 µM

>  <value>
15.7

$$$$
>  <input_smiles>
Cc1ccc(CNC(=O)CSc2nc3ccccc3c3nc(=O)c(-c4ccccc4)nn23)cc1

>  <reported_endpoint>
growth at 10 µM

>  <value>
67.7

$$$$
>  <input_smiles>
COc1ccccc1CNC(=O)CSc1nc2ccccc2c2nc(=O)c(-c3ccccc3)nn12

>  <reported_endpoint>
growth at 10 µM

>  <value>
27.7

$$$$
>  <input_smiles>
O=C(CSc1nc2ccccc2c2nc(=O)c(-c3ccccc3)nn12)NCc1ccccc1F

>  <reported_endpoint>
growth at 10 µM

>  <value>
49.6

$$$$
>  <input_smiles>
O=C(CSc1nc2ccccc2c2nc(=O)c(-c3ccccc3)nn12)NCc1ccccc1

>  <reported_endpoint>
growth at 10 µM

>  <value>
21.7

$$$$

Problem: Check the records and state growth at 10 µM for `Cc1nn2c(SCC(=O)NCc3ccccc3Cl)nc3ccccc3c2nc1=O`
Solution: 79.8

###

Provide the reported growth at 10 µM of each item.
# Tested on: HT-29
# method_notes: Cytotoxicity against Homo sapiens (human) HT-29 cells assessed as cell growth at 10 uM after 48 hr by SRB assay relative to control
# Assay type: functional
# test_context: HT-29, 48 h, read-out: Activity
Numbers only, in %.

>  <input_smiles>
COc1ccc(-c2nn3c(SCC(=O)Nc4ccccc4F)nc4ccccc4c3nc2=O)cc1

>  <experimental_system>
HT-29

>  <growth at 10 µM [%]>
67.8

$$$$

Here are 3 molecules. What values of growth at 10 µM were reported for them?
1. O=C(CSc1nc2ccccc2c2nc(=O)c(-c3ccccc3)nn12)NCc1ccc(F)cc1
2. Cc1ccc(CNC(=O)CSc2nc3ccccc3c3nc(=O)c(-c4ccccc4)nn23)cc1
3. COc1ccc(-c2nn3c(SCC(=O)Nc4ccccc4Cl)nc4ccccc4c3nc2=O)cc1

Solution:
1: 30.9; 2: 78.8; 3: 5.16

###

# Test system: Photobacterium leiognathi
# method_notes: Growth inhibition of Photobacterium leiognathi Sh1 assessed as bio-luminescence at 0.25 mg/ml after 10 min by acute action test relative to control
# Assay type: functional
# Parameters: scale not given: the % may be the effect or the level left
reported_endpoint: Activity (%)
Numbers only, in %.

Sample answers from the record:
>  <input_smiles>
COc1ccc(-c2nn3c(SCC(=O)Nc4ccccc4C(F)(F)F)nc4ccccc4c3nc2=O)cc1

>  <value>
113.4

$$$$
>  <input_smiles>
O=C(CSc1nc2ccccc2c2nc(=O)c(-c3ccccc3)nn12)Nc1ccc(Cl)cc1

>  <value>
142.9

$$$$
>  <input_smiles>
Cc1nn2c(SCC(=O)NCc3ccccc3F)nc3ccccc3c2nc1=O

>  <value>
170

$$$$
>  <input_smiles>
Cc1ccc(CNC(=O)CSc2nc3ccccc3c3nc(=O)c(-c4ccccc4)nn23)cc1

>  <value>
145.5

$$$$
>  <input_smiles>
Cc1cccc(NC(=O)CSc2nc3ccccc3c3nc(=O)c(C)nn23)c1

>  <value>
73.12

$$$$
>  <input_smiles>
Cc1nn2c(SCC(=O)NCc3ccccc3)nc3ccccc3c2nc1=O

>  <value>
91.7

$$$$
>  <input_smiles>
O=C(CSc1nc2ccccc2c2nc(=O)c(-c3ccccc3)nn12)NCc1ccc(F)cc1

>  <value>
91.7

$$$$
>  <input_smiles>
Cc1nn2c(SCC(=O)Nc3ccccc3C(F)(F)F)nc3ccccc3c2nc1=O

>  <value>
88.89

$$$$

Here are 6 molecules. What values of Activity were reported for them?
1. O=C(CSc1nc2ccccc2c2nc(=O)c(-c3ccccc3)nn12)Nc1cccc(Cl)c1
2. COc1ccc(NC(=O)CSc2nc3ccccc3c3nc(=O)c(-c4ccc(C)cc4)nn23)cc1
3. Cc1ccc(-c2nn3c(SCC(=O)Nc4ccccc4C)nc4ccccc4c3nc2=O)cc1
4. COc1ccc(-c2nn3c(SCC(=O)Nc4ccccc4F)nc4ccccc4c3nc2=O)cc1
5. Cc1ccc(CNC(=O)CSc2nc3ccccc3c3nc(=O)c(C)nn23)cc1
6. Cc1nn2c(SCC(=O)Nc3ccccc3F)nc3ccccc3c2nc1=O

Solution:
59.52
142.9
193.5
40
128.6
50.56

###

# Test system: Photobacterium leiognathi
# method_notes: Growth inhibition of Photobacterium leiognathi Sh1 assessed as bio-luminescence at 0.25 mg/ml after 10 min by acute action test relative to control
# Format: functional
# Parameters: scale not given: the % may be the effect or the level left
Use 50% as the dividing line for Activity, with the line itself on the MET side and lower values as NOT MET.

Problem: Hi team, for `Cc1nn2c(SCC(=O)NCc3ccc(F)cc3)nc3ccccc3c2nc1=O` , is the recorded Activity at or above 50%?
Solution: MET

Problem: Hi team, for `COc1ccccc1NC(=O)CSc1nc2ccccc2c2nc(=O)c(-c3ccccc3)nn12` , is the recorded Activity at or above 50%?
Solution: MET

Problem: Hi team, for `O=C(CSc1nc2ccccc2c2nc(=O)c(-c3ccccc3)nn12)NCc1ccccc1` , is the recorded Activity at or above 50%?
Solution: MET

Problem: Hi team, for `O=C(CSc1nc2ccccc2c2nc(=O)c(-c3ccccc3)nn12)Nc1cccc(C(F)(F)F)c1` , is the recorded Activity at or above 50%?
Solution: NOT MET

Problem: Hi team, for `O=C(CSc1nc2ccccc2c2nc(=O)c(-c3ccccc3)nn12)NCCc1ccccc1` , is the recorded Activity at or above 50%?
Solution: MET

Problem: Hi team, for `Cc1nn2c(SCC(=O)NCCc3ccccc3)nc3ccccc3c2nc1=O` , is the recorded Activity at or above 50%?
Solution: MET

Problem: Hi team, for `Cc1ccc(-c2nn3c(SCC(=O)Nc4ccc(C(F)(F)F)cc4)nc4ccccc4c3nc2=O)cc1` , is the recorded Activity at or above 50%?
Solution: MET

Problem: Hi team, for `COc1ccccc1CNC(=O)CSc1nc2ccccc2c2nc(=O)c(-c3ccccc3)nn12` , is the recorded Activity at or above 50%?
Solution: MET

Problem: Hi team, for `Cc1ccc(-c2nn3c(SCC(=O)Nc4cccc(F)c4)nc4ccccc4c3nc2=O)cc1` , is the recorded Activity at or above 50%?
Solution: MET

Problem: Hi team, for `Cc1ccc(-c2nn3c(SCC(=O)Nc4ccc(Cl)cc4)nc4ccccc4c3nc2=O)cc1` , is the recorded Activity at or above 50%?
Solution: NOT MET
